Answer each item with its documented IC50.
study_system: SCD-1 (Homo sapiens)
Construct: 50 μg of protein from a HepG2 cell P2 pellet; endogenous in cells; host or cells: HepG2 cells (P2 pellet)
Sequence (O00767 1-359): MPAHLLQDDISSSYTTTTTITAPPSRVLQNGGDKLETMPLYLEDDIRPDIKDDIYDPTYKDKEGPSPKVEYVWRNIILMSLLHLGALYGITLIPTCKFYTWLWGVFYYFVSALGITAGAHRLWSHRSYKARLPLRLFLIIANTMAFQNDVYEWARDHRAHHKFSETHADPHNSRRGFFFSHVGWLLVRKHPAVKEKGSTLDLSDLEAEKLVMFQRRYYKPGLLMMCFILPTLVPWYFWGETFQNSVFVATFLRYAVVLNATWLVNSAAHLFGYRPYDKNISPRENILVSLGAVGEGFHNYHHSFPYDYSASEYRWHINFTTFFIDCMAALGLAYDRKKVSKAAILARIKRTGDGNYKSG
test_name: Stearoyl-CoA desaturase assay (HepG2 cell P2 pellet)
Assay type: biochemical
condition: Table 2, compounds of formula (Ib); protein from HepG2 cell P2 pellet, 20 μM stearoyl-CoA, 15 min at 25° C.; read-out: Ave IC50

Quick one: IC50 for CC(C)(C)c1ccc(CN2CCC3(CCN(c4ncc(C(=O)NCCc5ccsc5)s4)CC3)Oc3c(F)cccc32)cc1 ?
500 to 10000 nM

Quick one: IC50 for CC(C)(C)c1ccc(CN2CCC3(CCN(c4ncc(C(=O)NCCCO)s4)CC3)Oc3ccccc32)cc1 ?
0.5 to 49 nM

Quick one: IC50 for O=C(O)CNC(=O)c1cnc(N2CCC3(CC2)CCN(Cc2cccc(C(F)(F)F)c2)c2ccccc2O3)s1 ?
0.5 to 49 nM

Quick one: IC50 for O=C(O)CCNC(=O)c1cnc(N2CCC3(CC2)CCN(Cc2cccc(C(F)(F)F)c2)c2cccc(F)c2O3)s1 ?
0.5 to 49 nM

Quick one: IC50 for CC(C)(C)c1ccc(CN2CCC3(CCN(c4ncc(-c5ccc(C#N)cc5)s4)CC3)Oc3ccccc32)cc1 ?
500 to 10000 nM

Quick one: IC50 for Cc1ccc(CCNC(=O)c2cnc(N3CCC4(CC3)CCN(Cc3ccc(C(C)(C)C)cc3)c3cccc(F)c3O4)s2)s1 ?
500 to 10000 nM

Quick one: IC50 for O=C(NCCCO)c1cnc(N2CCC3(CC2)CCN(Cc2cccc(C(F)(F)F)c2)c2ccccc2O3)s1 ?
0.5 to 49 nM

Quick one: IC50 for Cc1n[nH]c(C)c1CCNC(=O)c1cnc(N2CCC3(CC2)CCN(Cc2ccc(C(C)(C)C)cc2)c2cccc(F)c2O3)s1 ?
> 10000 nM

Quick one: IC50 for CC(C)(C)c1ccc(CN2CCC3(CCN(c4ncc(C(=O)NCCN5CCCC5=O)s4)CC3)Oc3c(F)cccc32)cc1 ?
500 to 10000 nM

Quick one: IC50 for CNC(=O)c1cnc(N2CCC3(CC2)CCN(Cc2cccc(C(F)(F)F)c2)c2ccccc2O3)s1 ?
0.5 to 49 nM

Quick one: IC50 for CC(C)(C)c1ccc(CN2CCC3(CCN(c4ncc(C(=O)NCCN5CCCC5)s4)CC3)Oc3c(F)cccc32)cc1 ?
500 to 10000 nM

Quick one: IC50 for CC(C)(C)c1ccc(CN2CCC3(CCN(c4ncc(C(=O)NCc5ccccn5)s4)CC3)Oc3c(F)cccc32)cc1 [Compound 106] ?
> 10000 nM

Quick one: IC50 for CC(C)(C)c1ccc(CN2CCC3(CCN(c4ncc(C(=O)NCCCO)s4)CC3)Oc3c(F)cccc32)cc1 ?
0.5 to 49 nM

Quick one: IC50 for CC(C)(C)c1ccc(CN2CCC3(CCN(c4ncc(C(=O)NCC5CCCO5)s4)CC3)Oc3c(F)cccc32)cc1 (centres unmarked) [Compound 89] ?
50 to 499 nM
